- TARGET_OR_SYSTEM: human recombinant 5-HT2B receptor (Homo sapiens, UniProt P41595)
- Sequence (P41595 whole entry): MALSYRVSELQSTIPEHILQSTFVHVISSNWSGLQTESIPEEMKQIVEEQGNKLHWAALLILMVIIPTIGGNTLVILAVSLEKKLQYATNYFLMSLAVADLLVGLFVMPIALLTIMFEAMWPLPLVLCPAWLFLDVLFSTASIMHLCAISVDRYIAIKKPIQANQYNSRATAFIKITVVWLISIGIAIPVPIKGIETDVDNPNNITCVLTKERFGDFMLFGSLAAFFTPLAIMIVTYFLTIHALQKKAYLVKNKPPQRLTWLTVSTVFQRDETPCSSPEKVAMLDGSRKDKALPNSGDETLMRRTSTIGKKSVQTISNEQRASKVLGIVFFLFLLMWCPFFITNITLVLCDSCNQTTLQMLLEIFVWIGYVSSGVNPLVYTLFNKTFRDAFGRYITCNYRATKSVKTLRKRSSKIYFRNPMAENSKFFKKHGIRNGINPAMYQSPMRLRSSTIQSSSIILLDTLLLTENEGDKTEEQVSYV
- ASSAY_INFO: Affinity for 5-HT2B receptor binding sites (competitive radioligand binding, [3H]mesulergine)
- CONDITION_SET: membranes of CHO with h5-HT2B, * = tested as hydrochloride salt
Record form. Attribute: Ki. Fill in for each entry.
Unit nM implied. Number only.

Query: Can you look up the measured Ki of COc1ccc(-c2nc(N3CCCCCC3)nc3c2CCNC3)cc1 for me?
Result: 100

Query: Moving on to C[C@@H]1CCC[C@H](C)N1c1nc2c(c(-c3cnc4ccccc4c3)n1)CCNCC2
Result: 64

Query: Moving on to C[C@H]1COCCN1c1nc2c(c(-c3ccc(F)cc3)n1)CNCC2
Result: 1200

Query: Moving on to Clc1ccc(-c2nc(NCc3ccccc3)nc3c2CCNCC3)cc1
Result: 45

Query: Moving on to Cc1ccc(-c2nc(N3CCOC[C@@H]3C)nc3c2CCNCC3)cc1F
Result: 39

Query: Moving on to CCN(CC)c1nc2c(c(-c3ccc(C#N)cc3)n1)CCN(Cc1ccccc1)C2
Result: 1100

Query: Moving on to CCN(CC)c1nc2c(c(-c3ccc(F)cc3)n1)CCN(Cc1ccccc1)C2
Result: 350

Query: Moving on to COc1ccc(-c2nc(N3CCCCCC3)nc3c2CCN(Cc2ccccc2)C3)cc1
Result: 700

Query: Moving on to CCN(CC)c1nc2c(c(-c3ccc(C)cc3)n1)CNCCC2
Result: 320

====

- TARGET_OR_SYSTEM: human recombinant 5-HT2B receptor (Homo sapiens)
- ASSAY_INFO: Affinity for 5-HT2B receptor binding sites (competitive radioligand binding, [3H]mesulergine)
- CONDITION_SET: membranes of CHO with h5-HT2B, * = tested as hydrochloride salt
Counter-ions that a name gives are not always drawn.
Record form. Attribute: pKi. Fill in for each entry.
Scale explanation: pKi corresponds to minus log10 of a concentration expressed in moles per litre.

Query: Give recorded pKi with human recombinant 5-HT2B receptor (Homo sapiens) for the following compound: CCN(CC)c1nc2c(c(-c3ccc(OC)cc3)n1)CNCCC2 [Example 17]
Result: 6.20

Query: Moving on to Clc1ccc(-c2nc(N3CCCCC3)nc3c2CCNCC3)cc1 [Example 74]
Result: 8.52

Query: Moving on to CC1CCCN1c1nc2c(c(-c3ccc(F)cc3)n1)CNCC2 (stereo not drawn) [Example 38, hydrochloride]
Result: 7.30

Query: Moving on to CC(C)c1ccc(-c2nc(N3[C@H](C)CCC[C@@H]3C)nc3c2CCNCC3)cc1 [Example 91]
Result: 8.22

Query: Moving on to CCN(CC)c1nc2c(c(-c3ccc(OC)cc3)n1)CCNCC2 [Example 13, hydrochloride]
Result: 9.10

Query: Moving on to Cc1ccc(-c2nc(N3CCCCCC3)nc3c2CCN(Cc2ccccc2)C3)cc1 [Example 33]
Result: 6.10

Query: Moving on to C[C@@H]1COCCN1c1nc2c(c(-c3cnc4ccccc4c3)n1)CCNCC2 [Example 99]
Result: 6.55

Query: Moving on to Cc1ccc(-c2nc(N3CCCCC3)nc3c2CNCC3)cc1 [Example 50]
Result: 6.80

Query: Moving on to Cc1ccc(-c2nc(N3CCOC[C@H]3C)nc3c2CCNCC3)cc1 [Example 100]
Result: 8.10

Query: Moving on to C[C@@H]1CCC[C@H](C)N1c1nc2c(c(-c3ccc(Cl)cc3)n1)CCNCC2 [Example 70]
Result: 8.70

Query: Moving on to CCN(CC)c1nc2c(c(-c3ccc(C)cc3)n1)CCNCC2 [Example 11, hydrochloride]
Result: 8.30

Query: Moving on to Fc1ccc(-c2nc(N3CCCCCC3)nc3c2CCNC3)cc1 [Example 32]
Result: 7.52

Query: Moving on to C[C@H]1COCCN1c1nc2c(c(-c3cnc4ccccc4c3)n1)CCNCC2 [Example 95]
Result: 6.24

Query: Moving on to Cc1ccc(-c2nc(N3CCS(=O)(=O)CC3)nc3c2CCNCC3)cc1 [Example 64]
Result: 6.21

Query: Moving on to CCN(CC)c1nc2c(c(-c3ccsc3)n1)CCNCC2 [Example 12, hydrochloride]
Result: 8.49

Query: Moving on to Cc1ccc(-c2nc(NCc3ccccc3)nc3c2CNCC3)cc1 [Example 51]
Result: 6.15

Query: Moving on to Fc1ccc(-c2nc(N3CCCC3)nc3c2CNCC3)cc1 [Example 41, hydrochloride]
Result: 6.12

Query: Moving on to CCNc1nc2c(c(-c3ccc(C)cc3)n1)CNCC2 [Example 48]
Result: 5.52
